- Protocol text: ATG_AP_1_CIS: Attagene CIS-FACTORIAL HepG2 Assay for human Activator Protein 1 (AP-1) (AID 2282931)
- Condition description: HepG2 Attagene cis-factorial AP-1 reporter mRNA; actives raise or lower the signal
Active and inactive are the calls of the source. How the source made its calls: active means hit-call score of the fitted dose curve at least 0.9, where 1 is the maximum; inactive means score below 0.9.
Possible outcomes: active, inactive

INSERT INTO assay_data (compound, assigned_label) VALUES
  ('COc1ccc(C)cc1N', 'inactive'),
  ('COc1ccc(S(=O)(=O)N2C(=O)[C@@](c3ccccc3OC)(N3C[C@H](O)C[C@H]3C(=O)N(C)C)c3cc(Cl)ccc32)c(OC)c1', 'active'),
  ('Nc1nc(N)c2nc(CNc3ccc(C(=O)N[C@@H](CCC(=O)O)C(=O)O)cc3)cnc2n1', 'active'),
  ('COCCOCCOC', 'inactive'),
  ('COc1cc(S(=O)(=O)O)c(C)cc1N=Nc1c(O)ccc2cc(S(=O)(=O)O)ccc12', 'inactive'),
  ('Cc1ccc(C)c(O)c1C', 'inactive'),
  ('CC(C)c1ccc(C(=O)N=C(N)N)cc1S(C)(=O)=O', 'inactive'),
  ('NCC1(Cc2noc(=O)[nH]2)CCCCC1', 'inactive'),
  ('CCCCCCCCCCO', 'inactive'),
  ('Cc1nc(-c2ccc3c(c2)CCN(CCC2CCC(NC(=O)/C=C/c4ccc(F)cc4)CC2)CC3)no1 (stereo not given)', 'inactive'),
  ('C[C@]12C=CC(=O)C=C1CC[C@@H]1[C@@H]2C(=O)C[C@@]2(C)[C@H]1CC[C@]2(O)C(=O)CO', 'inactive'),
  ('Cc1ccc(C)c(C)c1', 'inactive'),
  ('O=[N+]([O-])C(CO)(CO)CO', 'inactive'),
  ('CN[C@H]1CC[C@@H](c2ccc(Cl)c(Cl)c2)c2ccc(S(N)(=O)=O)cc21', 'inactive'),
  ('Nc1ccc2c(c1)C(=O)c1ccccc1C2=O', 'inactive'),
  ('C=CCOC(=O)c1ccccc1C(=O)OCC=C', 'active'),
  ('COC(=O)c1ccc(O)cc1', 'inactive'),
  ('CCCCCCCCCCCCCO', 'active'),
  ('CN1CCCC1=O', 'inactive'),
  ('CCCCC(CC)COC(=O)CC(C(=O)OCC(CC)CCCC)S(=O)(=O)O (stereo not given)', 'inactive'),
  ('NS(=O)(=O)c1cc2c(cc1Cl)NCNS2(=O)=O', 'inactive'),
  ('Cc1ccc2ncccc2c1', 'inactive'),
  ('Cc1oc(-c2ccccc2)nc1CCOc1cccc2c1ccn2CCC(=O)O', 'inactive'),
  ('Cc1ccc(Cl)cc1', 'inactive'),
  ('Oc1ccc2ccccc2c1N=Nc1ccccc1', 'inactive');

----------
- Tested target: Nuclear receptor subfamily 1 group I member 2 (Homo sapiens)
- Protocol text: ATG_PXR_TRANS: Attagene TRANS-FACTORIAL HepG2 Assay for human Pregnane X Receptor (PXR) (AID 2283008)
Results filed as inconclusive are left out. Active and inactive are the calls of the source. The calls were made as follows: active = hit-call score of the fitted dose curve at least 0.9, where 1 is the maximum; inconclusive = response in the unintended direction; inactive = score below 0.9.
Outcomes: true (1) for active, false (0) for inactive

INSERT INTO results (smiles_input, assigned_label) VALUES
  ('CC(C)(C)c1cc(O)c(C(C)(C)C)cc1O', 'true (1)'),
  ('COc1cc(-c2nc(NC(=O)c3cc4cc(C)cc(C)c4n3CC(=O)O)sc2CCC2CCCCC2)c(OC)cc1Cl', 'false (0)'),
  ('CC(=O)Oc1ccccc1C(=O)O', 'false (0)'),
  ('C1CCC(SSC2CCCCC2)CC1', 'false (0)'),
  ('COc1cc(/C=C/C(=O)CC(=O)/C=C/c2ccc(O)c(OC)c2)ccc1O', 'false (0)'),
  ('CCNc1cccc(C)c1', 'false (0)');

----------
- Read-out: CYP2C9 (gene 1559)
- Protocol text: LTEA_HepaRG_CYP2C9: Life Technologies and Expression Analysis (LTEA) Assay for CYP2C9 using HepaRG (AID 2283484)
- Condition description: mRNA level, 48 h; actives raise or lower the signal
The source made the active and inactive calls. The calls were made as follows: active = hit-call score of the fitted dose curve at least 0.9, where 1 is the maximum; inactive = score below 0.9.
Outcome codes: active, inactive

INSERT INTO measurements (compound, assigned_label) VALUES
  ('CCCCCCCCCCCCCCCC', 'inactive'),
  ('CC(CO)OC(C)CO (configuration not stated) (tested in a mixture with another compound)', 'inactive'),
  ('Cc1ccc(C)c(C)c1', 'inactive'),
  ('Cc1nc(-c2ccc3c(c2)CCN(CCC2CCC(NC(=O)/C=C/c4ccc(F)cc4)CC2)CC3)no1 (configuration not stated)', 'inactive'),
  ('C1CCC(SSC2CCCCC2)CC1', 'inactive'),
  ('O=C(O)Cc1ccccc1Nc1c(Cl)cccc1Cl', 'inactive'),
  ('FC(F)(F)C(F)(F)C(F)(F)C(F)(F)C(F)(F)C(F)(F)CCI', 'inactive'),
  ('C[Si]1(C)O[Si](C)(C)O[Si](C)(C)O[Si](C)(C)O1', 'inactive'),
  ('Nc1nc(N)c2nc(CNc3ccc(C(=O)N[C@@H](CCC(=O)O)C(=O)O)cc3)cnc2n1', 'inactive'),
  ('O=[N+]([O-])C(CO)(CO)CO', 'inactive'),
  ('Cc1cc(NC(=O)C(=O)O)cc(C)c1Oc1ccc(O)c2c1CCC2', 'inactive'),
  ('Cc1cc(=O)[nH]c(=S)[nH]1', 'inactive'),
  ('Cc1oc(-c2ccccc2)nc1CCOc1cccc2c1ccn2CCC(=O)O', 'active'),
  ('Cc1nc(C)nc(N2C[C@@H](C)N(c3ccnc([C@@H](C)O)n3)[C@@H](C)C2)n1', 'active'),
  ('O=c1[nH]cc(F)c(=O)[nH]1', 'inactive'),
  ('CCc1c(C(=O)NN2CCCCC2)nn(-c2ccc(Cl)cc2Cl)c1-c1ccc(Br)cc1', 'active'),
  ('Nc1ccc2c(c1)C(=O)c1ccccc1C2=O', 'active'),
  ('Cc1cccc([N+](=O)[O-])c1C', 'inactive'),
  ('CC1(C)CC(N=C=O)CC(C)(CN=C=O)C1 (configuration not stated)', 'inactive'),
  ('CCCCCC(=O)O', 'inactive'),
  ('Oc1ccc2c(c1)OC[C@@H](N1CCC(O)(c3ccc(F)cc3)CC1)[C@H]2O', 'inactive'),
  ('COCCOCCOC', 'inactive'),
  ('Cc1ccc(N(C)C)cc1', 'inactive'),
  ('Cc1ccc(Cl)cc1', 'inactive'),
  ('O=C(OCCCCCOC(=O)c1ccccc1)c1ccccc1', 'inactive'),
  ('CCOc1ccc2c(c1)C(C)=CC(C)(C)N2', 'inactive'),
  ('COC(=O)c1ccc(O)cc1', 'inactive');

----------
- Read-out: Monocyte Chemoattractant Protein-1 (MCP1), CCL2 (gene 6347)
- Protocol text: BSK_SAg_MCP1: BioMAP Diversity Plus: SAg Assay for Monocyte Chemoattractant Protein-1 (MCP1) Biomarker Activity (AID 2283090)
- Condition description: primary human HUVEC with PBMC; actives raise or lower the signal
Activity calls are given as the source filed them. The calls were made as follows: active = hit-call score of the fitted dose curve at least 0.9, where 1 is the maximum; inactive = score below 0.9.
Measurement type: AC50

INSERT INTO assay_data (molecule, value_measured) VALUES
  ('CC(CO)OC(C)CO (stereo unspecified) (tested in a mixture with another compound)', 'inactive'),
  ('O=C(N[C@@H](Cc1ccccc1)[C@@H](O)C(=O)N1C[C@@H](O)[C@@H](O)C1)c1cc2cc(Cl)ccc2[nH]1', 'inactive'),
  ('Cc1ccc(N(C)C)cc1', 'inactive'),
  ('Cc1cc(NC(=O)C(=O)O)cc(C)c1Oc1ccc(O)c2c1CCC2', 'inactive'),
  ('CCc1c(C(=O)NN2CCCCC2)nn(-c2ccc(Cl)cc2Cl)c1-c1ccc(Br)cc1', '8.24 µM (active)'),
  ('C=CCc1ccc(O)c(OC)c1', 'inactive');

----------
- Read-out: Alpha-fetoprotein (AFP) gene, AFP (gene 174)
- Protocol text: LTEA_HepaRG_AFP: Life Technologies and Expression Analysis (LTEA) Assay for Alpha-fetoprotein (AFP) gene using HepaRG (AID 2283472)
- Condition description: mRNA level, 48 h; actives raise or lower the signal
Activity calls are given as the source filed them. The calls were made as follows: active = hit-call score of the fitted dose curve at least 0.9, where 1 is the maximum; inactive = score below 0.9.
Labels: active, inactive

INSERT INTO assay_data (compound, assigned_label) VALUES
  ('CCOC(=O)CCC(=O)OCC', 'inactive'),
  ('CC1(C)CC(N=C=O)CC(C)(CN=C=O)C1 (centres undefined)', 'inactive'),
  ('CCCc1cc(=O)[nH]c(=S)[nH]1', 'inactive'),
  ('CCCCCC(=O)O', 'inactive'),
  ('CNCc1cc(F)ccc1Oc1ccc(Cl)c(Cl)c1', 'inactive'),
  ('CCCCCCCCCCO', 'inactive'),
  ('CC(C)c1ccc(C(=O)N=C(N)N)cc1S(C)(=O)=O', 'active'),
  ('CC(CO)OC(C)CO (centres undefined) (tested in a mixture with another compound)', 'inactive'),
  ('CC(=O)Oc1ccccc1C(=O)O', 'inactive'),
  ('CC=Cc1ccc(O)c(OC)c1', 'inactive'),
  ('COc1ccc(C)cc1N', 'inactive'),
  ('Cc1ccc2ncccc2c1', 'inactive'),
  ('CCCCc1ccc2c(n1)[C@@H](c1ccc(OC)cc1C[C@H](C)C(=O)O)[C@H](C(=O)O)[C@H]2c1ccc2c(c1)OCO2', 'inactive'),
  ('COCCOC[C@H](CC1(C(=O)NC2CCC(C(=O)O)CC2)CCCC1)C(=O)Oc1ccc2c(c1)CCC2 (some centres undefined)', 'inactive');

Measured values drawn from PubChem BioAssay (EPA / NIEHS) for this set.
